# System: T1, Human EphA2 (Ecto) (Human, UniProt P29317 24-537)
# T1 construct: extracellular domain
# T1 sequence (P29317 24-537): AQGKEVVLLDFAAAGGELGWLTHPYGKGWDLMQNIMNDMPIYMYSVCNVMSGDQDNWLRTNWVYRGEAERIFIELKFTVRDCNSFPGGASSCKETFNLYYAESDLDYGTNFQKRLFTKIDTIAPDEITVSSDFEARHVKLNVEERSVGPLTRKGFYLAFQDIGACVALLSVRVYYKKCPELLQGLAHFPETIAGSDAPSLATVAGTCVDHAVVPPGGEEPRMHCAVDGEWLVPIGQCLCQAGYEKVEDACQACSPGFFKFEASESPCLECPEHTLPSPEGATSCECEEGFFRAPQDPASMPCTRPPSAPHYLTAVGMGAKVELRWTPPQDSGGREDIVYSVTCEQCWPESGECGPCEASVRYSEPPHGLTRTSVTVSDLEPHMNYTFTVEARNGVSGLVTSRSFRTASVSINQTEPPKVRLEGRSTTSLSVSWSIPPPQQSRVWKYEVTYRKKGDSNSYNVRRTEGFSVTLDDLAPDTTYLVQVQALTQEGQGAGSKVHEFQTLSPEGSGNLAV
# Assay Remarks: FP competition, tracer Compound 18
pKi: −log10 of the molar value. Starred links: 1 amine or outer side, 2 acyl side, 3 side chain; linkers in the order of their positions; H or OH if unused. Positions of bridges follow the written chain, without caps; N, C: chain ends. Non-standard residues stand in square brackets, D forms with d. No end group written: not given here. 1Nal = N[C@@H](Cc1cccc2ccccc12)C(=O)O; TBMB = c1c(C[*:1])cc(C[*:3])cc1C[*:2]; hArg = N=C(N)NCCCC[C@H](N)C(=O)O; 2Thi = N[C@@H](Cc1cccs1)C(=O)O; Tle = CC(C)(C)[C@H](N)C(=O)O; Aib = CC(C)(N)C(=O)O; Sar = CNCC(=O)O
binders and their reported pKi
Quantity Kind: pKi

Ac-[Sar][Sar]A[dD]DVTCP[1Nal]G[Aib]FWCP[Tle]N[hArg]PGC (linker 8-15-22 via TBMB) [Bicycle Compound 284] : 8.42
[Sar][Sar]A[2Thi]DVPCPWGPFWCPVNRPGC (linker 8-15-22 via TBMB) [Bicycle Compound 201] : 9.22
AHDVPCP[1Nal]GPFWCP[Tle]NRPGC (linker 6-13-20 via TBMB) [Bicycle Compound 190] : 9.15
Ac-[Sar][Sar]AHDVPCPWGPFWCPVNRPGC (linker 8-15-22 via TBMB) [Bicycle Compound 193] : 9.23
[Sar][Sar]A[dA]DVPCPWGPFWCPVNRPGC (linker 8-15-22 via TBMB) [Bicycle Compound 199] : 8.47

The measured values listed here are drawn from patent US11814447B2.
